- EXPERIMENT_NOTES: Lipophilicity, logD of compound at pH 7.5 by reversed-phase HPLC analysis
- Format: physicochemical
- CONDITIONS_USED: buffer
ASSAY_ENDPOINT: chromatographic logD

In [3]: df
Out[3]:
                            chemical_string  result_value
0  CCOc1ccccc1-c1ccc(-c2nc3cnccc3c(N[C@H](CC)C(=O)NS(C)(=O)=O)c2C#N)cc1           2.2
1  CC[C@@H](Nc1c(C#N)c(-c2ccc(-c3ccccc3C(F)(F)F)cc2)nc2cnccc12)C(N)=O           3.1
2  CC[C@@H](Nc1c(C#N)c(-c2ccc(-c3ccccc3Cl)cc2)nc2cnccc12)C(N)=O           2.9
3  CC[C@@H](Nc1c(C#N)c(-c2ccc(-c3ccncc3C)cc2)nc2cnccc12)C(N)=O             2
4  CC[C@@H](Nc1c(C#N)c(-c2ccc(-c3ccccc3C(C)C)cc2)nc2cnccc12)C(N)=O           3.5
5  CC[C@@H](Nc1c(C#N)c(-c2ccc(-c3ccccc3C)cc2)nc2cnccc12)C(N)=O             3
6  CCOc1ccccc1-c1ccc(-c2nc3cnccc3c(N[C@@H]3CCNC3=O)c2C#N)cc1           2.7

1 = CC[C@@H](Nc1c(C#N)c(-c2ccc(-c3cccc(C)c3F)cc2)nc2cnccc12)C(=O)O
2 = CCOc1ccccc1-c1ccc(-c2nc3cnccc3cc2C#N)cc1
Prompt: Endpoint returns whichever of 1 and 2 has the numerically higher chromatographic logD. Answer by quoting the chosen item's label.
Response: 2

====

- EXPERIMENT_NOTES: Lipophilicity, logD of compound at pH 7.5 by reversed-phase HPLC analysis
- Type: physicochemical
- CONDITIONS_USED: buffer
ASSAY_ENDPOINT: chromatographic logD

In [3]: df
Out[3]:
                                   compound        assay_endpoint  result_value
0  CC[C@@H](Nc1c(C#N)c(-c2ccc(-c3cccc(C)c3)cc2)nc2cnccc12)C(N)=O  chromatographic logD             3
1  CC[C@@H](Nc1c(C#N)c(-c2ccc(-c3ccc(F)cc3)cc2)nc2cnccc12)C(N)=O  chromatographic logD           2.7
2  CC[C@@H](Nc1c(C#N)c(-c2ccc(-c3cccc(Cl)c3OC)cc2)nc2cnccc12)C(N)=O  chromatographic logD           3.1
3  CCOc1ccccc1-c1ccc(-c2nc3cnccc3c(NC(C(N)=O)C3CC3)c2C#N)cc1 (racemic)  chromatographic logD             3

====

- EXPERIMENT_NOTES: Metabolic stability in human liver microsomes assessed as maximum bioavailability at 1 uM in presence of NADP and measured upto 60 mins by LC-MS/MS analysis
- Type: ADME, Microsome
- CONDITIONS_USED: read-out: Fmax
ASSAY_ENDPOINT: Fh at 1 h, 1 µM (%)
Lab book: enter the figure in %, no units written.

Prompt: Look up Fh at 1 h, 1 µM: CC[C@@H](Nc1c(C#N)c(-c2ccc(-c3cccc(C)c3F)cc2)nc2cnccc12)C(=O)O
Response: 100

====

- EXPERIMENT_NOTES: Lipophilicity, logD of compound at pH 7.5 by reversed-phase HPLC analysis
- Assay type: physicochemical
- CONDITIONS_USED: buffer
ASSAY_ENDPOINT: chromatographic logD

Examples with their reported chromatographic logD follow.
                                   compound        assay_endpoint  result_value
0  CCOc1ccccc1-c1ccc(-c2nc3cnccc3c(NC(C)C(=O)O)c2C#N)cc1 (racemic)  chromatographic logD           2.1
1  CC[C@@H](Nc1c(C#N)c(-c2ccc(-c3ncccc3C)cc2)nc2cnccc12)C(N)=O  chromatographic logD             2

A = CCOc1ccccc1-c1ccc(-c2nc3cnccc3c(N[C@H](CC)C(=O)N(C)C)c2C#N)cc1
B = CC[C@@H](Nc1c(C#N)c(-c2ccc(-c3cccnc3C)cc2)nc2cnccc12)C(N)=O
Prompt: Could you tell me which of these two has the smaller chromatographic logD figure? First: A Second: B Answer by quoting the chosen item's label.
Response: B

1 = CCOc1ccccc1-c1ccc(-c2nc3cnccc3c(N[C@H](CC)C(=O)NS(=O)(=O)C3CC3)c2C#N)cc1
2 = CCOc1ccccc1-c1ccc(-c2nc3cnccc3c(N[C@H](CC(C)C)C(N)=O)c2C#N)cc1
3 = CC[C@@H](Nc1c(C#N)c(-c2ccc(Br)cc2)nc2cnccc12)C(=O)O
Prompt: Please list the entries, largest chromatographic logD first. Write out the labels following the order that was asked for.
Response: 2, 1, 3
(2: 3.4, 1: 2.3, 3: 1.6)

I = CC(Nc1c(C#N)c(-c2ccc(Br)cc2)nc2cnccc12)C(N)=O (racemic)
II = CCOc1ccccc1-c1ccc(-c2nc3cnccc3c(N)c2C#N)cc1
Prompt: Endpoint returns whichever of I and II has the numerically higher chromatographic logD. Answer by quoting the chosen item's label.
Response: II
(II: 3, I: 2.1)

A = CC[C@@H](Nc1c(C#N)c(-c2ccc(-c3ccccc3NC)cc2)nc2cnccc12)C(N)=O
B = CCCCC(Nc1c(C#N)c(-c2ccc(-c3ccccc3OCC)cc2)nc2cnccc12)C(N)=O (racemic)
Prompt: Endpoint returns whichever of A and B has the numerically higher chromatographic logD. Answer by quoting the chosen item's label.
Response: B
(B: 3.6, A: 2.5)

====

- EXPERIMENT_NOTES: Metabolic stability in Han Wistar rat hepatocytes assessed as maximum bioavailability at 1 uM in presence of NADP and measured upto 90 mins by LC-MS/MS analysis
- Format: ADME, Hepatocyte
- CONDITIONS_USED: read-out: Fmax
ASSAY_ENDPOINT: Fh at 1.5 h, 1 µM (%)

I = CC[C@@H](Nc1c(C#N)c(-c2ccc(-c3cccc(C)c3F)cc2)nc2cnccc12)C(=O)O
II = CCOc1ccccc1-c1ccc(-c2nc3cnccc3c(N[C@H](CC)C(=O)O)c2C#N)cc1
Prompt: Endpoint returns whichever of I and II has the numerically higher Fh at 1.5 h, 1 µM. Answer by quoting the chosen item's label.
Response: II
(II: 87%, I: 44%)

====

- EXPERIMENT_NOTES: Metabolic stability in Han Wistar rat hepatocytes assessed as intrinsic clearance at 1 uM in presence of NADP and measured upto 90 mins by LC-MS/MS analysis
- Format: ADME, cell-based, Hepatocyte
- CONDITIONS_USED: read-out: CLH (converted)
ASSAY_ENDPOINT: CLint scaled at 1 µM (mL/min/kg)

1 = CCOc1ccccc1-c1ccc(-c2nc3cnccc3c(N[C@H](CC)C(=O)O)c2C#N)cc1
2 = CC[C@@H](Nc1c(C#N)c(-c2ccc(-c3cccc(C)c3F)cc2)nc2cnccc12)C(=O)O
Prompt: Could you tell me which of these two has the smaller CLint scaled at 1 µM figure? First: 1 Second: 2 Answer by quoting the chosen item's label.
Response: 1
(1: 8.33 mL/min/kg, 2: 38.3 mL/min/kg)

====

- EXPERIMENT_NOTES: Lipophilicity, logD of compound at pH 7.5 by reversed-phase HPLC analysis
- Assay type: physicochemical
- CONDITIONS_USED: buffer
ASSAY_ENDPOINT: chromatographic logD

Examples with their reported chromatographic logD follow.
>>> print(df.to_string())
                                   compound        assay_endpoint  result_value
0  CC(C)(Nc1c(C#N)c(-c2ccc(Br)cc2)nc2cnccc12)C(N)=O  chromatographic logD           2.1
1  CCOc1ccccc1-c1ccc(-c2nc3cnccc3c(NC(CC)CNS(=O)(=O)C3CC3)c2C#N)cc1 (racemic)  chromatographic logD           3.6
2  CC[C@@H](Nc1c(C#N)c(-c2ccc(-c3ccccc3CO)cc2)nc2cnccc12)C(N)=O  chromatographic logD           2.1
3  CC[C@@H](Nc1c(C#N)c(-c2ccc(-c3ccccc3N(C)C)cc2)nc2cnccc12)C(N)=O  chromatographic logD           3.2
4  CCOc1ccccc1-c1ccc(-c2nc(NC(C)C(=O)O)c3ccncc3n2)cc1 (racemic)  chromatographic logD           2.1
5  CC[C@@H](Nc1c(C#N)c(-c2ccc(-c3cccc(Cl)c3)cc2)nc2cnccc12)C(N)=O  chromatographic logD           3.1
6  CC[C@@H](Nc1c(C#N)c(-c2ccc(-c3cccc(CO)c3)cc2)nc2cnccc12)C(N)=O  chromatographic logD             2
7  CCOc1ccccc1-c1ccc(-c2nc3cnccc3c(NC(COC)C(N)=O)c2C#N)cc1 (racemic)  chromatographic logD           2.8

I = CC[C@@H](Nc1c(C#N)c(-c2ccc(-c3cccc(Cl)c3F)cc2)nc2cnccc12)C(=O)O
II = CCOc1ccccc1-c1ccc(-c2nc3cnccc3c(N[C@H](CC)C(=O)NCC(F)F)c2C#N)cc1
Prompt: Endpoint returns whichever of I and II has the numerically higher chromatographic logD. Answer by quoting the chosen item's label.
Response: II
